Where do these numbers come from? They come from patent US11180474B2.

- systemTested: human TLR9 (Homo sapiens, UniProt Q9NR96)
- Sequence (Q9NR96 26-1032): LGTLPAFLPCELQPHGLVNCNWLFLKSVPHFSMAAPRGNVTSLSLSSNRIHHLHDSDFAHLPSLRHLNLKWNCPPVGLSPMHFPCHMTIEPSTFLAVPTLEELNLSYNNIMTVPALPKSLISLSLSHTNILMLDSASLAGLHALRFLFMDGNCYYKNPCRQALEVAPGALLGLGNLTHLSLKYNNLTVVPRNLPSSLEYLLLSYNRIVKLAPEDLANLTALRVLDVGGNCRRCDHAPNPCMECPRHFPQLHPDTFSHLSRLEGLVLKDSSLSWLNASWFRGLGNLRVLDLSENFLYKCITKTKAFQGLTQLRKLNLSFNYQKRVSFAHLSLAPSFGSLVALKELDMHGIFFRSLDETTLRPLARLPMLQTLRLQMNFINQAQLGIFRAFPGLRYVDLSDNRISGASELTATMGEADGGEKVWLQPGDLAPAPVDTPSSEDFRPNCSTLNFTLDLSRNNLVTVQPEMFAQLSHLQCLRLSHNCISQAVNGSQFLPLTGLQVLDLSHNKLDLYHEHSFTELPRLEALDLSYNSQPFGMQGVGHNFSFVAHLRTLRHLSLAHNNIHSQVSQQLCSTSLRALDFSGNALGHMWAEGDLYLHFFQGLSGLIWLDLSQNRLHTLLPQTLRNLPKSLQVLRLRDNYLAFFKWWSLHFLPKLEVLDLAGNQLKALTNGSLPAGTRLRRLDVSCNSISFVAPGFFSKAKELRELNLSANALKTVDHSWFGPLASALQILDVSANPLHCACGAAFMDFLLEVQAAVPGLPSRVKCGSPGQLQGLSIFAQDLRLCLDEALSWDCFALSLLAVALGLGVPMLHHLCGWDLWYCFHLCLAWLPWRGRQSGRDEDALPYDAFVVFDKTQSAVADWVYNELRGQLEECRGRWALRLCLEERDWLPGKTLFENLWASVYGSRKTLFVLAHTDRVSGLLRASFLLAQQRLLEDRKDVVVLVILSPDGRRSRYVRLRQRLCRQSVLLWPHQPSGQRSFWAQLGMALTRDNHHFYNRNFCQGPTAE
- experimentDescription: TLR9 inhibition reporter assay (HEK-Blue cells, SEAP reporter, ODN2006 stimulation)
- conditionNotes: HEK-Blue cells overexpressing human TLR9, ODN2006 5 nM
A collection of molecules and their measured pIC50
Keep it numeric: pIC50 is minus log10 of the concentration in mol/L.

Examples from the recorded data:
smilesstructure=COc1ccc(-c2[nH]c3ccc(C4CCN(CC5CCOCC5)CC4)cc3c2C)cc1OC experimentalendpoint=pIC50 measurednumber=6.14
smilesstructure=COc1ccc(-c2[nH]c3ccc(C4CCN(CC(=O)N5CCN(c6ncccn6)CC5)CC4)cc3c2CC(F)(F)F)cc1OC experimentalendpoint=pIC50 measurednumber=5.88

Here's the next entry for you.
Query string: Report pIC50 for COc1ccc(-c2[nH]c3ccc(C4CCNCC4)cc3c2CC(F)(F)F)cc1OC tested on human TLR9 (Homo sapiens, UniProt Q9NR96).
Result string: 5.94

====

A collection of molecules and their measured pIC50
- systemTested: human TLR8 (Homo sapiens)
- Sequence (Q9NR97 27-1041): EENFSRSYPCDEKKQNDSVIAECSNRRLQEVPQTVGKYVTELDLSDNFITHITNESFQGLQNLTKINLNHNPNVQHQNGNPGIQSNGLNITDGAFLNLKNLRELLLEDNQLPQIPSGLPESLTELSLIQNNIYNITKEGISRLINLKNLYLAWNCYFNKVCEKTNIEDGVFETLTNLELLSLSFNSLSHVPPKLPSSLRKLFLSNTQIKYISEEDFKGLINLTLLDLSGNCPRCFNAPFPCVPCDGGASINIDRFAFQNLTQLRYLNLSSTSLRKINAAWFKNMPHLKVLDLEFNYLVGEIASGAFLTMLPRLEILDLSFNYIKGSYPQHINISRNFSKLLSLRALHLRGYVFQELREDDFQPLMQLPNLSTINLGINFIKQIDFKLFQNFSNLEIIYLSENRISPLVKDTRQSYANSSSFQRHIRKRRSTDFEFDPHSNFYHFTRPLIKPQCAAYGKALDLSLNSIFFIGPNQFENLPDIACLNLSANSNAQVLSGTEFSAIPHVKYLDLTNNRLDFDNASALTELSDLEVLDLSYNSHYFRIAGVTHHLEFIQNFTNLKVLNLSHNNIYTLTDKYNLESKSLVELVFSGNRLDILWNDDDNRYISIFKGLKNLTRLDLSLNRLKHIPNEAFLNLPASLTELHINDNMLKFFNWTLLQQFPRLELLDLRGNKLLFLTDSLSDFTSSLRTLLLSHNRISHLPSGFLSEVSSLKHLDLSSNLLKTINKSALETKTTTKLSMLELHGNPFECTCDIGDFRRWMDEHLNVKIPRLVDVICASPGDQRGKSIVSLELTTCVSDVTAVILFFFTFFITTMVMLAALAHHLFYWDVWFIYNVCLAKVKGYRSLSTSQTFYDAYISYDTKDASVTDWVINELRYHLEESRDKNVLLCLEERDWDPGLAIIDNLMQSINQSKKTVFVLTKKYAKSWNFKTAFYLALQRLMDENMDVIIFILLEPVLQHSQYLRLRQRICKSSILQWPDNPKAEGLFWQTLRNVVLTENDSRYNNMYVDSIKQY
- experimentDescription: TLR8 inhibition reporter assay (HEK-Blue cells, SEAP reporter, R848 stimulation)
- conditionNotes: HEK-Blue cells overexpressing human TLR8, R848 15.9 μM
Keep it numeric: pIC50 is minus log10 of the concentration in mol/L.

Examples from the recorded data:
molecule="COc1ccc(-c2[nH]c3ccc(C4CCN(C(=O)CN(C)C)CC4)cc3c2C(O)C(F)(F)F)cc1OC (stereo not shown)" experimentalendpoint=pIC50 measurednumber=6.36
molecule=COc1ccc(-c2[nH]c3ccc(C4CCN(C(=O)CN(C)CCO)CC4)cc3c2C(C)C)cc1OC experimentalendpoint=pIC50 measurednumber=7.85
molecule=COc1ccc(-c2[nH]c3ccc(C4CCN(C(=O)CN5CCC[C@@H](C(=O)N6CCN(CCN7CCCC7)CC6)C5)CC4)cc3c2C(C)C)cc1OC experimentalendpoint=pIC50 measurednumber=7.42

Here's the next entry for you.
Query string: Could you share which pIC50 value was measured for COc1ccc(-c2[nH]c3ccc(C4CCN(CC(=O)N(C)CCCN(C)C)CC4)cc3c2CC(F)(F)F)cc1OC ?
Result string: 7.62
